Exercise: for every item that follows, state its recorded fold difference in affinity vs original ING-1.
# system: T1, Ep-CAM (UniProt P16422 24-265, limits assumed)
# T1 construct: Immobilised on the Biacore chip; construct not described
# T1 sequence (looked up): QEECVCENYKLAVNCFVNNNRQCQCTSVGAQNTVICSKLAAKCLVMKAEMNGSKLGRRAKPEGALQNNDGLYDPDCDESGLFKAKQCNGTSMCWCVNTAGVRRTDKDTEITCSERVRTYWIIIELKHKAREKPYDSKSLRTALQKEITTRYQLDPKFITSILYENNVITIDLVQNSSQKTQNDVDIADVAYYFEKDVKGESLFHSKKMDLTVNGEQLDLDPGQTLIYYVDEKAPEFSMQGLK
# testSummary: Biacore, Fab periplasmic extract
Numbers only, in fold.

For orientation, consider the following solved cases.
{"columns": ["binder", "resultUnit", "reportedValue"],
 "data": [
  ["ING-1 Fab, light chain Y54A (Fab, V domains shown, Fab in periplasmic extract) VH: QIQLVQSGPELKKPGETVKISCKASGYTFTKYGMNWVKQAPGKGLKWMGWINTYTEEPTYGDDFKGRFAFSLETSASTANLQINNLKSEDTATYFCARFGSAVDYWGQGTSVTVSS VL: DIVMTQAAFSNPVTLGTSGSISCRSSKSLLHSNGITYLYWYLQKPGQSPQLLIAQMSNLASGVPDRFSSSGSGTDFTLRISRVEAEDVGVYYCAQNLELPRTFGGGTKLEMKR", "fold", 0.08],
  ["ING-1 Fab, light chain Y37A (Fab, V domains shown, Fab in periplasmic extract) VH: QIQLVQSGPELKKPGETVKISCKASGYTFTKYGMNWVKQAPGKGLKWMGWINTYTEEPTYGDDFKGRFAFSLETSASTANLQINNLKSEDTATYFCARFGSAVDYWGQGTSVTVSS VL: DIVMTQAAFSNPVTLGTSGSISCRSSKSLLHSNGITALYWYLQKPGQSPQLLIYQMSNLASGVPDRFSSSGSGTDFTLRISRVEAEDVGVYYCAQNLELPRTFGGGTKLEMKR", "fold", 0.04],
  ["ING-1 Fab, light chain L99G (Fab, V domains shown, Fab in periplasmic extract) VH: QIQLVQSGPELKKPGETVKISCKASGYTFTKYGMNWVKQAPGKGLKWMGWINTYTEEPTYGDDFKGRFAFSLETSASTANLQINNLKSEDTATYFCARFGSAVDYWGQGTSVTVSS VL: DIVMTQAAFSNPVTLGTSGSISCRSSKSLLHSNGITYLYWYLQKPGQSPQLLIYQMSNLASGVPDRFSSSGSGTDFTLRISRVEAEDVGVYYCAQNLEGPRTFGGGTKLEMKR", "fold", 0.02],
  ["ING-1 Fab, light chain L99T (Fab, V domains shown, Fab in periplasmic extract) VH: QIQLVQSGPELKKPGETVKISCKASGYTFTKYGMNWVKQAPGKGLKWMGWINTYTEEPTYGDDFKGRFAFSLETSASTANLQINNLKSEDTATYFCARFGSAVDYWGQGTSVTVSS VL: DIVMTQAAFSNPVTLGTSGSISCRSSKSLLHSNGITYLYWYLQKPGQSPQLLIYQMSNLASGVPDRFSSSGSGTDFTLRISRVEAEDVGVYYCAQNLETPRTFGGGTKLEMKR", "fold", 0.09],
  ["ING-1 Fab, light chain N33T (Fab, V domains shown, Fab in periplasmic extract) VH: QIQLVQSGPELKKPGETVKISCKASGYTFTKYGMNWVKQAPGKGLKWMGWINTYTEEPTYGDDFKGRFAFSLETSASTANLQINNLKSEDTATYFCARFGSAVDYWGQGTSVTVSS VL: DIVMTQAAFSNPVTLGTSGSISCRSSKSLLHSTGITYLYWYLQKPGQSPQLLIYQMSNLASGVPDRFSSSGSGTDFTLRISRVEAEDVGVYYCAQNLELPRTFGGGTKLEMKR", "fold", 0.6]
]}

Turning now to a further record.
Which fold difference in affinity vs original ING-1 is reported for this binder? ING-1 Fab, light chain I35P (Fab, V domains shown, Fab in periplasmic extract) VH: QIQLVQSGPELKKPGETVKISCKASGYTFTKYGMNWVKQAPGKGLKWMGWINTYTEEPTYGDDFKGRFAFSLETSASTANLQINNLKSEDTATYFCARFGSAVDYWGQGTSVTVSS VL: DIVMTQAAFSNPVTLGTSGSISCRSSKSLLHSNGPTYLYWYLQKPGQSPQLLIYQMSNLASGVPDRFSSSGSGTDFTLRISRVEAEDVGVYYCAQNLELPRTFGGGTKLEMKR
0.7
